System: MOLT-4 leukemia
Assay: NCI tumour cell line growth inhibition, 48 h; in the data active = GI50 below about 0.43 µM; inactive = the rest
Outcomes: active, inactive

> print(dat)
                                    molecule  class.assignment
 1  CC(C)(C)c1ccc(NS(=O)(=O)c2ccc3nc(NC(=O)c4cnccn4)[nH]c3c2)cc1          inactive
 2                          NC(=S)NN=C1CSSC1          inactive
 3  Brc1ccc2c(-c3csc(-c4c[nH]c5ccccc45)n3)c[nH]c2c1          inactive
 4  C[C@@H](Nc1nc(Nc2ccc(F)c(Cl)c2)nc2ccccc12)C1CC1          inactive
 5               C/C(=N\NC(=S)N(C)C)c1ccccn1            active
 6  Cc1ccc(Sc2cc3c(oc2=O)-c2ccccc2OC3O)cc1 (stereo unspecified)          inactive
 7          CN(C)CCCn1c(-c2nonc2N)nc2cnccc21          inactive
 8  Cc1cc(C(=O)c2ccccc2)c(C)c2c1[nH]c1ccc(Cl)cc12            active
 9    O=C(/C=C\c1cccc2ccccc12)c1cccc2ccccc12          inactive
10  O=C1OCC2=C1C(c1ccccc1)c1cc3c(cc1N2CCO)OCCO3 (stereo unspecified)            active
11  O=C(c1ccccc1)c1c(C(F)(F)F)n([O-])c2ccc(C(F)(F)F)cc2[n+]1=O            active

Taken from PubChem BioAssay (NCI).
